Provenance of the data: patent US9938562B2

System: Escherichia coli NCTC 10418
Experiment: Agar plate multi-point inoculation, colour
Assay type: cell-based
Conditions: Columbia agar, FAC 500 mg/L, substrate 300 mg/L, 37° C. 18 h in air
Measurement label: Colour

Compound: OC[C@H]1O[C@@H](Oc2cc3cc(Br)c(Br)cc3cc2O)C(O)C1O (stereo partly drawn) [Compound 23, 6,7-Dibromo-DHN-β-D-ribofuranoside]
Tested system: Escherichia coli NCTC 10418
Recorded measurement: −
//
Compound: OCC1OC(Oc2cc3cc(Br)c(Br)cc3cc2O)C(O)C(O)C1O [Compound 25, 6,7-Dibromo-DHN-β-D-galactopyranoside]
Tested system: Escherichia coli NCTC 10418
Recorded measurement: ++
//
Compound: OCC1OC(Oc2cc3ccccc3cc2O)C(O)C(O)C1O [Compound 4, DHN-β-D-glucopyranoside]
Tested system: Escherichia coli NCTC 10418
Recorded measurement: Tr.
//
Compound: CCCCCCCC(=O)Oc1cc2ccccc2cc1OC(=O)CCCCCCC [Compound 16, DHN-dicaprylate]
Tested system: Escherichia coli NCTC 10418
Recorded measurement: −
//
Compound: OCC1OC(Oc2cc3cc(Br)c(Br)cc3cc2O)C(O)C(O)C1O [Compound 27, 6,7-Dibromo-DHN-β-D-glucopyranoside]
Tested system: Escherichia coli NCTC 10418
Recorded measurement: Tr.
//
Compound: O=C([O-])C1OC(Oc2cc3ccccc3cc2O)C(O)C(O)C1O.[Na+] [Compound 12b, DHN-β-D-glucuronide Sodium Salt]
Tested system: Escherichia coli NCTC 10418
Recorded measurement: ++
//
Compound: OCC1OC(Oc2cc3ccccc3cc2O)C(O)C(O)C1O [Compound 10, DHN-α-D-galactopyranoside]
Tested system: Escherichia coli NCTC 10418
Recorded measurement: Tr.
